Measured parameter: melting point (°C)
Lab book: enter the figure in °C, no units written.

Example cases with answers are listed next.
Answer with the recorded melting point for the compound listed here: Cc1cc2ccccc2[n+]([O-])c1 [3-methylquinoline n-oxide]
89

Answer with the recorded melting point for the compound listed here: CN(C)c1ccc(/C=C2\C(=O)C3CCC(C)(C2=O)C3(C)C)cc1 (centres undefined)
153

Answer with the recorded melting point for the compound listed here: C[C@@H](O)[C@H](O)[C@H](O)[C@@H](O)C=O
145

Answer with the recorded melting point for the compound listed here: O=C(N[C@H](CO)[C@H](O)c1ccc([N+](=O)[O-])cc1)C(Cl)Cl
151

Answer with the recorded melting point for the compound listed here: CC(=O)NC1C(OC(C)=O)OC(COC(C)=O)C(OC(C)=O)C1OC(C)=O (centres undefined)
140

New cases:
Answer with the recorded melting point for the compound listed here: c1ccc2c(c1)ccc1c3ccccc3ccc21 [chrysene]
254

Answer with the recorded melting point for the compound listed here: CCOc1cccc(B(O)O)c1
144

Answer with the recorded melting point for the compound listed here: CC1(c2ccccc2)C(=O)NC(=O)NC1=O
228

Answer with the recorded melting point for the compound listed here: O=C(O)c1cc2cc(Br)ccc2c(Br)c1O [1,6-dibromo-2-hydroxynaphthalene-3-carboxylic acid]
251

---

# melting point >= 200 °C gives T, anything below gives F

See these solved cases before continuing.
Given the entry C=CCCCCCC , answer whether its melting point meets or surpasses 200 °C.
F

Given the entry OC[C@@H](O)[C@@H](O)[C@H](O)[C@H](O)CO [mannitol] , answer whether its melting point meets or surpasses 200 °C.
F

Given the entry O=C(c1ccccc1)c1ccc(C(F)(F)F)cc1 , answer whether its melting point meets or surpasses 200 °C.
F

Given the entry COc1ccc([N+](=O)[O-])cc1 , answer whether its melting point meets or surpasses 200 °C.
F

Given the entry CC[C@H](C)C(=O)O[C@H]1C[C@@H](C)C=C2C=C[C@H](C)[C@H](CC[C@@H]3C[C@@H](O)CC(=O)O3)[C@H]21 , answer whether its melting point meets or surpasses 200 °C.
F

New cases:
Given the entry Fc1cc(I)ccc1Br , answer whether its melting point meets or surpasses 200 °C.
F

Given the entry S=C=Nc1ccccc1I [2-iodophenyl isothiocyanate] , answer whether its melting point meets or surpasses 200 °C.
F

Given the entry O=C(O)c1c(O)cccc1F , answer whether its melting point meets or surpasses 200 °C.
F

Given the entry CC[C@@H]1OC(=O)[C@H](C)C(=O)[C@H](C)[C@@H](O[C@@H]2O[C@H](C)C[C@H](N(C)C)[C@H]2O)[C@](C)(OC)C[C@@H](C)C(=O)[C@H](C)[C@H]2N(CCCCn3cnc(-c4cccnc4)c3)C(=O)O[C@@]12C , answer whether its melting point meets or surpasses 200 °C.
F

---

Measured melting point of individual entries
Number first, unit second.

Example cases with answers are listed next.
Answer with the recorded melting point for the molecule listed here: CSC(SC)=C1CCCC(=C(SC)SC)C1=C(C#N)C#N
156 °C

Answer with the recorded melting point for the molecule listed here: C=C[C@H]1C[N@@]2CC[C@H]1C[C@@H]2[C@@H](O)c1ccnc2ccc(OC)cc12
174 °C

Answer with the recorded melting point for the molecule listed here: CCOc1ccc(B(O)O)cn1
103 °C

Answer with the recorded melting point for the molecule listed here: COc1cc(CO)ccc1O [4-hydroxy-3-methoxybenzyl alcohol]
114 °C

New cases:
Answer with the recorded melting point for the molecule listed here: CCN1C(=O)C=CC1=O [N-ethylmaleimide]
45 °C

Answer with the recorded melting point for the molecule listed here: CCC(C)(C)Cl
-73 °C

Answer with the recorded melting point for the molecule listed here: CC(=O)N1CCN(c2ccc(OC[C@@H]3CO[C@@](Cn4ccnc4)(c4ccc(Cl)cc4Cl)O3)cc2)CC1
146 °C

Answer with the recorded melting point for the molecule listed here: CC(=O)c1ccc(S(=O)(=O)NC(=O)NC2CCCCC2)cc1 [Acetohexamide]
189 °C

Answer with the recorded melting point for the molecule listed here: CC(CCc1ccccc1)NCC(O)c1ccc(O)c(C(N)=O)c1 (stereo not given) [labetalol]
188 °C

Answer with the recorded melting point for the molecule listed here: Nc1cccc(I)c1
23 °C
